Provenance of the data: PubChem BioAssay (NCI)

# Tested on: NCI-H226 lung
# MEASUREMENT NOTES: NCI-60 one-dose screen, 48 h (100 = growth as untreated, 0 = no growth, -100 = all killed)
# CONDITION DETAILS: 10 µM unless noted
Compounds without any hit were thinned out: in the full panel of roughly 83,000, 20% have a hit.
ENDPOINT: growth (%)

COMPOUND: CC1=C([Se]CC(OC(=O)CC[Se]c2ccccc2)C(=O)NCCCCCC(=O)OCc2ccccc2)C(=O)c2ccccc2C1=O (configuration not stated)
ENDPOINT: growth
MEASUREMENT UNIT: %
REPORTED RESULT: 46

COMPOUND: COc1ccc(-c2nc(SC(C)C)nc(NNC(N)=S)c2C#N)cc1
ENDPOINT: growth
MEASUREMENT UNIT: %
REPORTED RESULT: 86.4

COMPOUND: CC1O[C@@H](OC2[C@H](OC(=O)/C=C/c3ccc(O)c(O)c3)C(COC3O[C@H](C)C(O)C(O)[C@@H]3O)O[C@@H](OCCc3ccc(O)c(O)c3)[C@H]2O)[C@@H](O)C(O)[C@H]1O (some centres not stated)
ENDPOINT: growth
MEASUREMENT UNIT: %
REPORTED RESULT: 112

COMPOUND: C[C@H]1[C@H]2[C@H]3CC[C@@H]4[C@@]5(C)C/C(=C/c6cccnc6)C(=O)C(C)(C)[C@@H]5CC[C@@]4(C)[C@]3(C)CC[C@]23CO[C@]1(C)[C@@H](C(=O)/C=C\c1cccnc1)C3
ENDPOINT: growth
MEASUREMENT UNIT: %
REPORTED RESULT: -13.5

COMPOUND: O=C(Cc1ccc(F)c(F)c1)Nc1cc(C2(C(F)(F)F)CC2)nn1Cc1ccccc1
ENDPOINT: growth
MEASUREMENT UNIT: %
REPORTED RESULT: 8.26

COMPOUND: CCN(CC)c1nc(SCC(=O)Nc2nc3ccc(C)cc3s2)nc(-c2ccccc2)c1C#N
ENDPOINT: growth
MEASUREMENT UNIT: %
REPORTED RESULT: 86.2

COMPOUND: CN(C)CC1=NC2SC=C(c3ccccc3)C2C(=O)N1CC#N (configuration not stated)
ENDPOINT: growth
MEASUREMENT UNIT: %
REPORTED RESULT: 85.5

COMPOUND: O=C(/C=C/c1cccc(O)c1)c1cccc(-n2cc(-c3ccc4ccccc4c3)[nH]c2=O)c1
ENDPOINT: growth
MEASUREMENT UNIT: %
REPORTED RESULT: 88.9

COMPOUND: COC(=O)/C=C1\S/C(=N\NS(=O)(=O)c2ccc(C)cc2)N(c2ccccc2)C1=O
ENDPOINT: growth
MEASUREMENT UNIT: %
REPORTED RESULT: 97.8

COMPOUND: COc1cc(C2CC(=O)Nc3c2c(C)nn3-c2nc3ccccc3[nH]2)c(OC)c2c1OCO2 (configuration not stated)
ENDPOINT: growth
MEASUREMENT UNIT: %
REPORTED RESULT: 84.8

COMPOUND: COc1cccc(C(=O)NCCCNc2cc(-c3cn(-c4ccccc4)nc3-c3cccc(OC)c3)ccn2)c1
ENDPOINT: growth
MEASUREMENT UNIT: %
REPORTED RESULT: 54.6

COMPOUND: c1ccc(Nc2nc(-c3ccccn3)cs2)nc1
ENDPOINT: growth
MEASUREMENT UNIT: %
REPORTED RESULT: -9.64

COMPOUND: N#C/C(=C\c1ccc(Br)cc1)n1nnc2cc(F)c(F)cc21
ENDPOINT: growth
MEASUREMENT UNIT: %
REPORTED RESULT: 37.3

COMPOUND: Cc1ccc(S(=O)(=O)n2cc(CNc3ccc(N4CCOCC4=O)cc3)c3ccccc32)cc1
ENDPOINT: growth
MEASUREMENT UNIT: %
REPORTED RESULT: 92.4

COMPOUND: COc1ccc(CNC(=O)C(O)C(Cc2ccccc2)NC(=O)c2[nH]c3ccccc3c(=O)c2C)cc1OC (configuration not stated)
ENDPOINT: growth
MEASUREMENT UNIT: %
REPORTED RESULT: 98.1

COMPOUND: O=[N+]([O-])c1ccc(Sc2cccc[n+]2[O-])c2nonc12
ENDPOINT: growth
MEASUREMENT UNIT: %
REPORTED RESULT: 102

COMPOUND: COC(=O)[C@]12CC[C@@H](C)[C@H](C)[C@@H]1C1=CC[C@@H]3[C@@]4(C)C(C=O)=C[C@@](C)(CO)[C@@H]4[C@H](O)C[C@@]3(C)[C@]1(C)CC2
ENDPOINT: growth
MEASUREMENT UNIT: %
REPORTED RESULT: 3.36
